Target: FGFR1 (human)
Experiment: radiometric filter-binding kinase assay, Kinase HotSpot
Details: compound 0.5 µM; ATP 10 µM
Mark Not satisfied for residual activity values under 90%, and Satisfied for everything at or above.

N#C/C(=C\c1ccc(O)c(O)c1)C(=O)NCc1ccccc1 : Satisfied
COc1cc(Nc2c(C#N)cnc3cc(OCCCN4CCN(C)CC4)c(OC)cc23)c(Cl)cc1Cl : Not satisfied
C[C@@H]1CCN(C(=O)CC#N)C[C@@H]1N(C)c1ncnc2[nH]ccc12 : Satisfied
COc1ccc2c(c1)c(C1=C(c3c[nH]c4ccccc34)C(=O)NC1=O)cn2CCCN(C)C : Not satisfied
c1ccc2c(-c3ccncc3)c[nH]c2c1 : Satisfied

Reported residual activity reaches at least 90% for Fc1ccc(-c2nc3n(c2-c2ccncc2)CCS3)cc1 ? Satisfied

Quick check, residual activity >= 90%? O=C(c1cc2cc(O)ccc2[nH]1)c1cc2cc(O)ccc2[nH]1 Not satisfied

Is the recorded value of residual activity equal to or greater than 90% for this compound? CS(=O)(=O)CCNCc1ccc(-c2ccc3ncnc(Nc4ccc(OCc5cccc(F)c5)c(Cl)c4)c3c2)o1 Satisfied

###

Listing of entries alongside the reported residual activity.
Target: BRSK1 (human) (UniProt Q8TDC3)
Sequence (Q8TDC3 whole entry, looked up): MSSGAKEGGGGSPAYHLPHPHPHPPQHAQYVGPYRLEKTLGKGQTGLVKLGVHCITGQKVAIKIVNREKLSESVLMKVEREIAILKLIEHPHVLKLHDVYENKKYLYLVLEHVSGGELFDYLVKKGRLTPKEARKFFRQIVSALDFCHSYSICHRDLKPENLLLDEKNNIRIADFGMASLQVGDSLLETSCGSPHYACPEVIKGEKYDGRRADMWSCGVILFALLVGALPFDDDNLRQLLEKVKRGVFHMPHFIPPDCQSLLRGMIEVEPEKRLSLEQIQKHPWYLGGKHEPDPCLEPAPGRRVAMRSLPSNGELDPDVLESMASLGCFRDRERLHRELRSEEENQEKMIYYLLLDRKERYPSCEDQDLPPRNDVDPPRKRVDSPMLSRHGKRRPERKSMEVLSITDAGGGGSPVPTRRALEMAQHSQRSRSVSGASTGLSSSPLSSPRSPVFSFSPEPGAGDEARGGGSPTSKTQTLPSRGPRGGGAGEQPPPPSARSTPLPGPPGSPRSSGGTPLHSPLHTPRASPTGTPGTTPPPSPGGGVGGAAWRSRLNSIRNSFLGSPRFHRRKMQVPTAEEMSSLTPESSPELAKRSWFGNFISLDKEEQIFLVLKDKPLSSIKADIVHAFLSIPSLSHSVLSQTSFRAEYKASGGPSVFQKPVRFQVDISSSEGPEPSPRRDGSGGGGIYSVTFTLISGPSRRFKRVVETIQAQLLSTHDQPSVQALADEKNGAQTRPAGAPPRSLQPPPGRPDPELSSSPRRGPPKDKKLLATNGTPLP
Assay: radiometric filter-binding kinase assay, Kinase HotSpot
Conditions: compound 0.5 µM; ATP 10 µM
Report the figure in % without appending any unit label.

# return recorded residual activity for entry O=C1c2ccccc2-c2nc3nnnn3nc21 84.8

###

System: MKNK1 (human), Q9BUB5 [T385D; 165-205 del]
Sequence (Q9BUB5 whole entry, looked up, stated change not applied): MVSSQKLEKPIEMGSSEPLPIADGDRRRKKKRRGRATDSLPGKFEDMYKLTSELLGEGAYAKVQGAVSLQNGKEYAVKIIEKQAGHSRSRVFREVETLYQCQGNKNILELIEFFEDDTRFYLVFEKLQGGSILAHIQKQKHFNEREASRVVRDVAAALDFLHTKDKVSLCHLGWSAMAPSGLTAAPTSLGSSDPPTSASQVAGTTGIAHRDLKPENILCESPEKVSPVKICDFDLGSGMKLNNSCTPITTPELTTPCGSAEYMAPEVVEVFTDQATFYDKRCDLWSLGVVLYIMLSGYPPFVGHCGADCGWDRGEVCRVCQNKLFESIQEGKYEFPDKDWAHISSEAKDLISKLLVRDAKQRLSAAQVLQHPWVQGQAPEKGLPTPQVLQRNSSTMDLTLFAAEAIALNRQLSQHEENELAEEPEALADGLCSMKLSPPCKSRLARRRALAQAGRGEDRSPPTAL
Test: radiometric filter-binding kinase assay, Kinase HotSpot
Conditions: compound 0.5 µM; ATP 10 µM
measured_quantity: residual activity (%)
Kindly provide the numeric value in % only, without the unit symbol.

Observe how each entry below is paired with its result.
CSc1nc(-c2ccc(F)cc2)c(-c2ccnc(NC(C)c3ccccc3)c2)[nH]1 (configuration not stated) : 97.1
CS(=O)(=O)CCNCc1ccc(-c2ccc3ncnc(Nc4ccc(OCc5cccc(F)c5)c(Cl)c4)c3c2)o1 : 94.5
CC(C)N(CCC(=O)c1ccc2ccccc2c1)Cc1ccccc1 : 105
CC(C)[C@H](CO)Nc1nc(Nc2cc(N)cc(Cl)c2)c2ncn(C(C)C)c2n1 : 99.1
CC(C)[C@H](CO)Nc1nc(Nc2cccc(Cl)c2)c2ncn(C(C)C)c2n1 : 79.8

Using known records, supply residual activity for CN(C)c1ccc(/C=C2\C(=O)Nc3ccccc32)cc1 97.3

Read off the recorded residual activity for CN(C)S(=O)(=O)c1ccc2c(c1)/C(=C/c1cc3c([nH]1)CCCC3)C(=O)N2 108

Provide only the value of recorded residual activity for COc1ccc(CNC(=O)Nc2ncc([N+](=O)[O-])s2)cc1 98.4

Give recorded residual activity. O=C(NC(NC(=S)Nc1ccc(F)c([N+](=O)[O-])c1)C(Cl)(Cl)Cl)C(c1ccccc1)c1ccccc1 (configuration not stated) 100

###

Target: MATK (human)
Test: radiometric filter-binding kinase assay, Kinase HotSpot
Details: compound 0.5 µM; ATP 10 µM
# residual activity annotations
I only need the number, in %, no unit after it.

// below: answered compounds
COc1ccc(S(=O)(=O)N(CCO)c2ccccc2CN(C)C/C=C/c2ccc(Cl)cc2)cc1 : 101
COc1ccc2c(c1)c(C1=C(c3c[nH]c4ccccc34)C(=O)NC1=O)cn2CCCN(C)C : 99.3
COc1cc2ncnc(Nc3ccc(OCc4ccccc4)cc3)c2cc1OC : 97.5

Using the record for COc1ccc(C(=O)Nc2sc3c(c2C(N)=O)CCCC3)cc1OC , state its measured residual activity. 92.7

Report measured residual activity; entry is O=C(c1cc2cc(O)ccc2[nH]1)c1cc2cc(O)ccc2[nH]1 93.3

Report residual activity, nothing else, for this compound: O=C1Nc2ccc(Br)cc2/C1=C\c1cc2c([nH]1)CCCC2 94.2
